Measurement target: Vasopressin V1a receptor (Homo sapiens); note: assay procedure not described here
Sequence (P37288 whole entry): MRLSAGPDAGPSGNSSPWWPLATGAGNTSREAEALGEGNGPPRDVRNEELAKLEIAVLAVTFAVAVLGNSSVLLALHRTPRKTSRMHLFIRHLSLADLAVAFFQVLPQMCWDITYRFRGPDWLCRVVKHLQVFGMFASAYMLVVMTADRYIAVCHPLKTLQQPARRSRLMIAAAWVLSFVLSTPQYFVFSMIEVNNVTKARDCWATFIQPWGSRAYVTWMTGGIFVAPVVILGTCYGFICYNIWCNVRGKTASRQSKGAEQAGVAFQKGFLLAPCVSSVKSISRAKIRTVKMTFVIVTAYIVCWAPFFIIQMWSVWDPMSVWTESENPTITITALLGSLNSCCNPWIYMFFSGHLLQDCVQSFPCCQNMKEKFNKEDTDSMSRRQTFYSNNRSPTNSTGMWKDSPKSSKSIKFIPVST
AC50 listing for selected compounds.

Example results:
{"Compound": "CCC(=O)O[C@H]1CC[C@H]2[C@@H]3CCC4=CC(=O)CC[C@]4(C)[C@H]3CC[C@]12C [TESTOSTERONE PROPIONATE]", "AC50": "> 10 µM"}
{"Compound": "C#CCOc1ccc(N)cc1C(=O)NCCCC [PARSALMIDE]", "AC50": "> 30 µM"}
{"Compound": "CCN(CC)C(=O)Nc1ccc(OCC(O)CNC(C)(C)C)c(C(C)=O)c1 (stereo unspecified)", "AC50": "> 30 µM"}
{"Compound": "COc1ccccc1Oc1c(NS(=O)(=O)c2ccc(C(C)(C)C)cc2)nc(-c2ncccn2)nc1OCCO", "AC50": "> 30 µM"}
{"Compound": "CCCCCCCCCCCCCCCCCCCCCC(=O)Nc1ccn([C@@H]2O[C@H](CO)[C@@H](O)[C@@H]2O)c(=O)n1", "AC50": "> 30 µM"}

Challenge: Look up AC50 with Vasopressin V1a receptor (Homo sapiens) for this compound: C=CC[C@@H]1/C=C(\C)C[C@H](C)C[C@H](OC)[C@H]2O[C@@](O)(C(=O)C(=O)N3CCCC[C@H]3C(=O)O[C@H](/C(C)=C/[C@@H]3CC[C@@H](O)[C@H](OC)C3)[C@H](C)[C@@H](O)CC1=O)[C@H](C)C[C@@H]2OC [TACROLIMUS ANHYDROUS]
Response given: > 30 µM

Challenge: Lab note: need AC50 with Vasopressin V1a receptor (Homo sapiens) for entry CCN1CCN(Cc2ccc(Nc3ncc(F)c(-c4cc(F)c5nc(C)n(C(C)C)c5c4)n3)nc2)CC1 , please look it up.
Response given: > 30 µM

Challenge: API: value(readout=AC50, system=Vasopressin V1a receptor (Homo sapiens)) for record CC(N)C(O)c1ccccc1 (stereo unspecified); note: assay procedure not described here
Response given: > 30 µM

Challenge: Provide the documented AC50 with Vasopressin V1a receptor (Homo sapiens) as the system for CCN(CC)CCNC(=O)c1cc(S(C)(=O)=O)ccc1OC [TIAPRIDE]
Response given: > 30 µM

Challenge: What is its AC50 for Vasopressin V1a receptor (Homo sapiens)? Entry: OC[C@H]1O[C@@](CO)(O[C@H]2O[C@H](CO)[C@@H](O)[C@H](O)[C@H]2O)[C@@H](O)[C@@H]1O
Response given: > 30 µM

Challenge: Record lookup: for Vasopressin V1a receptor (Homo sapiens), what AC50 belongs to C[C@H](CCC(=O)O)[C@H]1CC[C@H]2[C@@H]3[C@@H](O)C[C@@H]4C[C@H](O)CC[C@]4(C)[C@H]3CC[C@]12C ?
Response given: > 30 µM

Challenge: Missing value: AC50, Vasopressin V1a receptor (Homo sapiens), entry C[C@]12CC[C@@H]3c4ccc(O)cc4C[C@@H](CCCCCCCCC[S+]([O-])CCCC(F)(F)C(F)(F)F)[C@H]3[C@@H]1CC[C@@H]2O (stereo partly specified) . Fill in?
Response given: > 30 µM

Challenge: Find the measured AC50: item C=C1/C(=C\C=C2/CCC[C@]3(C)[C@@H]([C@H](C)/C=C/[C@@H](O)C4CC4)CC[C@@H]23)C[C@@H](O)C[C@@H]1O , target or system Vasopressin V1a receptor (Homo sapiens). Note: assay procedure not described here.
Response given: > 30 µM

Challenge: Test system Vasopressin V1a receptor (Homo sapiens); read-out AC50; what value for COc1ccc(-c2noc(CC(=O)O)c2-c2ccc(OC)cc2)cc1 ?; note: assay procedure not described here
Response given: > 30 µM

Challenge: Param readout = AC50; param system = Vasopressin V1a receptor (Homo sapiens); param query = CCC(COC(=O)c1cc(OC)c(OC)c(OC)c1)(c1ccccc1)N(C)C (stereo unspecified) ; response: value; note: assay procedure not described here
Response given: > 30 µM

====

Assay read-out AC50; system under study: Neuronal acetylcholine receptor subunit alpha-4 (Homo sapiens, UniProt P43681). Note: assay procedure not described here.
Sequence (P43681 whole entry): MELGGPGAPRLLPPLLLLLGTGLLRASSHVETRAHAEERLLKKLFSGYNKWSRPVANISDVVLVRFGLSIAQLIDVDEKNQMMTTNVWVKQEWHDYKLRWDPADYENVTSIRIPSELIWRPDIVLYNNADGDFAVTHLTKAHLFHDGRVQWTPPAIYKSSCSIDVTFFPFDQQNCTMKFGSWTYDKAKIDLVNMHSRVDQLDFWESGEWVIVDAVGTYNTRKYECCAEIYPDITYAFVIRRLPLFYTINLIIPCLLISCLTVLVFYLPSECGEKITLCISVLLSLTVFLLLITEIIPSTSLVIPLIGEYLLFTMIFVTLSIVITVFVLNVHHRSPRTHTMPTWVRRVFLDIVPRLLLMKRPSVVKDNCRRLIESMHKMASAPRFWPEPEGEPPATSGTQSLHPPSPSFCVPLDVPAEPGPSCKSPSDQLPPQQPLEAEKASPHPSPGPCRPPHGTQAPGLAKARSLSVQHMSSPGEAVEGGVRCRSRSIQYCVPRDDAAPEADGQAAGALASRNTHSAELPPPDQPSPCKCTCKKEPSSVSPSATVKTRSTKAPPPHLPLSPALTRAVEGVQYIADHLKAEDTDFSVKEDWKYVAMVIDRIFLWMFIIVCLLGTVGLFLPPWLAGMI

Challenge: Which AC50 is listed for Nc1cc(-c2ccncc2)c[nH]c1=O [INAMRINONE] ?
Response given: > 10 µM

Challenge: Give the measured AC50 of CC(C)N(CCC(C(N)=O)(c1ccccc1)c1ccccn1)C(C)C (centres undefined) [DISOPYRAMIDE] .
Response given: > 30 µM

Challenge: What does the record list as AC50 for O=C(O)CCNC(=O)c1ccccc1 [BETAMIPRON] ?
Response given: > 30 µM

Challenge: Which value of AC50 has been reported for C[C@H]1c2cccc(O)c2C(=O)C2=C(O)[C@]3(O)C(=O)C(C(N)=O)=C(O)[C@@H](N(C)C)[C@@H]3[C@@H](O)[C@@H]21 [DOXYCYCLINE] in the records?
Response given: > 10 µM

====

Measurement target: Melanocortin receptor 4 (Homo sapiens, UniProt P32245); note: assay procedure not described here
Sequence (P32245 whole entry): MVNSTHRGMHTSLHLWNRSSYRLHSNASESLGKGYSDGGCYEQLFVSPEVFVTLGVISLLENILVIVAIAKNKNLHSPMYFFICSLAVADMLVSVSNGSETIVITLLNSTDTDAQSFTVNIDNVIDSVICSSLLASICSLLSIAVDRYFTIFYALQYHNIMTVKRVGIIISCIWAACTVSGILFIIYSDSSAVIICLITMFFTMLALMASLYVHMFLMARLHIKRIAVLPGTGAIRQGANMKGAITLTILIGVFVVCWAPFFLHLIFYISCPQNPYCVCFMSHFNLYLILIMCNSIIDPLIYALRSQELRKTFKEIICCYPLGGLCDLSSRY
Value kind: AC50

Below are worked cases with known answers.
{"Compound": "CN1CCN(C2=Nc3ccccc3Oc3ccc(Cl)cc32)CC1 [LOXAPINE]", "AC50": "> 30 µM"}
{"Compound": "CCC1(c2ccccc2)CCC(=O)NC1=O (stereo not given) [GLUTETHIMIDE]", "AC50": "> 10 µM"}
{"Compound": "CCCN[C@H]1CCc2nc(N)sc2C1 [PRAMIPEXOLE]", "AC50": "> 30 µM"}
{"Compound": "O=C(O)c1cn(C2CC2)c2cc(N3CCNCC3)c(F)cc2c1=O [CIPROFLOXACIN]", "AC50": "> 30 µM"}
{"Compound": "N[C@@H](CC(=O)N1CCn2c(nnc2C(F)(F)F)C1)Cc1cc(F)c(F)cc1F [SITAGLIPTIN]", "AC50": "> 10 µM"}

Challenge: Form entry - test system: Melanocortin receptor 4 (Homo sapiens, UniProt P32245); read-out: AC50; compound: CC(CCc1ccc(O)cc1)NCCc1ccc(O)c(O)c1 (stereo not given) [DOBUTAMINE]; note: assay procedure not described here
Response given: > 30 µM

Challenge: Reported AC50 for Melanocortin receptor 4 (Homo sapiens, UniProt P32245), given CN1C(C(=O)Nc2ccccn2)=C(O)c2ccccc2S1(=O)=O [PIROXICAM] ?
Response given: > 10 µM

Challenge: Request - read-out AC50 | tested on Melanocortin receptor 4 (Homo sapiens, UniProt P32245) | compound CCCCC1C(=O)N(c2ccccc2)N(c2ccccc2)C1=O [PHENYLBUTAZONE]; note: assay procedure not described here
Response given: > 30 µM

Challenge: I'm curious: which AC50 was measured for COc1cc2nc(N3CCN(C(=O)C4CCCO4)CC3)nc(N)c2cc1OC (stereo not given) [TERAZOSIN] tested on Melanocortin receptor 4 (Homo sapiens, UniProt P32245)?; note: assay procedure not described here
Response given: > 30 µM

Challenge: Notebook entry, Melanocortin receptor 4 (Homo sapiens, UniProt P32245) assay: AC50 of CC(C)NCC(O)c1ccc(O)c(O)c1 (stereo not given) [ISOPROTERENOL] = ?
Response given: > 30 µM

====

The entries below are paired with their reported AC50.
Target sequence: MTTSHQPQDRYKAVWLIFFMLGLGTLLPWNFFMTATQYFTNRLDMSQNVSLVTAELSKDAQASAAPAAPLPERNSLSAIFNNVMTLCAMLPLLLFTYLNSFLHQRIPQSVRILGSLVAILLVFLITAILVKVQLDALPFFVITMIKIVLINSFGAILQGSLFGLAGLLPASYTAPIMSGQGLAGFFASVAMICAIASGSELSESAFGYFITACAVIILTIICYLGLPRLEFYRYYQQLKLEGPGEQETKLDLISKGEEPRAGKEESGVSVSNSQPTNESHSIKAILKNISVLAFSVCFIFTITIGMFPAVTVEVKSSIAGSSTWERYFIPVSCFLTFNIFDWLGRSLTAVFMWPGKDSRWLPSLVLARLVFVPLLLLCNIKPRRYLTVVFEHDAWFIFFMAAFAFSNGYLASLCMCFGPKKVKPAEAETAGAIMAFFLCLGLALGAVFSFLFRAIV

Some solved cases for reference:
{"Molecule": "CCOC(=O)O[C@]1(C(=O)OCCl)CC[C@H]2[C@@H]3CCC4=CC(=O)C=C[C@]4(C)[C@H]3[C@@H](O)C[C@@]21C [LOTEPREDNOL ETABONATE]", "Observed measurement": "> 30 µM"}
{"Molecule": "Cc1noc(NS(=O)(=O)c2ccc(N)cc2)c1C", "Observed measurement": "> 10 µM"}
{"Molecule": "CC(C(=O)O)c1ccc(CC2CCCC2=O)cc1 (stereo not drawn)", "Observed measurement": "> 30 µM"}

Challenge: Could you share which AC50 value was measured for Cc1cc2cc3c(C)cc(=O)oc3c(C)c2o1 ?
Response given: > 10 µM

Challenge: I would be grateful if you could share the reported AC50 for CN1CCN(C2=Nc3ccccc3Oc3ccc(Cl)cc32)CC1 .
Response given: > 30 µM

Challenge: So what's the measured AC50 for this one? CC(N)C12CC3CC(CC(C3)C1)C2 (stereo not drawn)
Response given: > 10 µM

Challenge: Quick check: AC50 of C/C(=C\C(=O)OCCCCCCCCC(=O)O)C[C@@H]1OC[C@H](C[C@@H]2O[C@H]2[C@@H](C)[C@H](C)O)[C@@H](O)[C@H]1O ?
Response given: > 30 µM

Challenge: Returns the measured AC50 for the input molecule. Input: CCN(CC)CCNC(=O)c1c(C)[nH]c(/C=C2\C(=O)Nc3ccc(F)cc32)c1C
Response given: 5 µM
